So I've got a bunch of binders here, and I need their Neutralization of HA-pseudotypes (IC90) values.
target: H5 HA A/WS/Mong/244/05 (on pseudotypes) (influenza A virus A/WS/Mong/244/05 (H5N1)); test: cell-based or functional assay
Numeric answer plus unit only.

Noted for FE43 (antibody, V domains shown) VH: QVHLVQSGAEVKKPGSSVRLSCSASGGPFSGFAISWLRQAPGQGLEWLGGISAVFGTATYAQKFQGRVTITADQFTSTSHMDLSRLTYDDTAVYYCARSGGYLPQNNWIDPWGQGTLVIVSS VL: DIVMTQTPLSLSVTPGQPASISCKSSQSLLHSDGKTYLYWYLQKPGQSPQLLIYEVSNRFSGVPDRFSGSGSGTDFTLKISRVEAEDVGVYYCMQNILLPLTFGGGTKVEIK : its Neutralization of HA-pseudotypes (IC90) reads 0.186 µg/mL

Noted for FB139 (antibody, V domains shown) VH: QVQLVQSGAEVKKAGSSVKVSCQSSGVTFSMYAVSWVRQAPGQGLEWMGGIIPLFGTTTYAQKFEGRLTITADTSTNMAYLELRSLRSEDTAVYFCARAGTTVTRFNWFDPWGQGTLVTVSS VL: EVVLTQSPGTLSLSPGQRATLSCRASQSVSSSYLAWYQQKPGQAPRLLIYDASNRATGIPDRFSGSGSGTDFTLTISRLEPEDFAVYYCQQYGSSPYTFGQGTKLEIK : its Neutralization of HA-pseudotypes (IC90) reads 0.035 µg/mL

Noted for FC6 (antibody, V domains shown) VH: QGQLVQSGAEVKKSGSSVKVSCKTSGGTFNSHAISWVRQAPGQGLEWIGGIIPMFGTTNYAQKLKGRIAITADQLPTTAYLELSSLRSEDTAVYYCARGQRYYYDRDGMDVWGQGTMVTVSS VL: EIVMTQTPLSLSVTPGQPASISCRSSQSLLHSDGKTYLYWYLQKPGQPPQLLISEVFNRFSGVPDRFSGSGSGTDFTLKISRVEAEDVGVYYCMQSLQLPLTFGGGTKVEIK : its Neutralization of HA-pseudotypes (IC90) reads 0.073 µg/mL

Noted for FE53 (antibody, V domains shown) VH: QVQLVQSGAEVKKPGSSVKVSCKASGVTSSNYPITWVRQAPGQGLEWMGGVLPLFGVTNYAQKFQGRVTISADKSTNTAYMELSSLRSEDTAVYYCARGKRPGYCSGGVCSSDYWGQGTLVTVSS VL: DIQMTQSPSSLSASVGDRVSITCQASQDISRYLNWYQQKPGEAPKLLIYDASNLETGVPSRFSGSGSGTDFTFTISSLQPEDIATYFCQQYGYLPLTFGPGTKVDSK : its Neutralization of HA-pseudotypes (IC90) reads 0.077 µg/mL

The reported numbers originate from patent US20100086555A1.
